test details: P. aeruginosa biofilm formation inhibitors, primary screen, strain PAO1, LB-PBS medium, absorbance 600 nm (AID 1176)
test context: P. aeruginosa PAO1 growth/biofilm, A600, 12 h; higher = more signal
The label depends only on z-score: 1 (yes) if it is at least 0.4, 0 (no) if it is smaller.

Item COC(=O)[C@H](C)NC(=O)CCC1CC(OC(=O)NCc2ccc3c(c2)OCO3)CC2(CCCC(COC(=O)NCc3ccccc3)O2)O1 (stereo partly drawn) with z-score of 0.4 or above?
0 (no)

Check this compound for z-score at or above 0.4: CCOC(=O)[C@H](Cc1ccccc1)NC(=O)CCC1CC(OC(=O)NCc2ccc3c(c2)OCO3)CC2(CCCC(COC(=O)NCCOC)O2)O1 (stereo partly drawn)
0 (no)

Answer whether z-score of COc1ccc(COC(=O)NN=C2C[C@@H](O)[C@@H](O)[C@@H]3[C@@H]4C(=O)N(C5CCCCC5)C(=O)[C@@H]4CC[C@@H]23)cc1 is greater than or equal to 0.4.
0 (no)

Test whether the compound O=C(NN=C1C[C@@H](O)[C@@H](O)[C@@H]2[C@@H]3C(=O)N(Cc4ccc5c(c4)OCO5)C(=O)[C@@H]3CC[C@@H]12)OCc1ccccc1 records z-score of 0.4 or higher.
0 (no)

###

Below, each of the molecules is paired with its reported composite z-score value.
test details: small-molecule microarray binders of probe aWnt5a, primary screen, biochemical, biotinylated probe, 635/667 nm fluorescence (AID 1113);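 note: score merges 667 nm fluorescence intensity with signal-to-noise per printed feature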
test context: higher = more signal

Solved entries:
{"molecule": "CCOC(=O)[C@H](CC(C)C)NC(=O)CCC1CC(OC(=O)NCCc2ccc(F)cc2)CC2(CCCC(COC(=O)NCCOC)O2)O1 (stereo partly specified)", "experimental readout": "composite z-score", "reading": -0.176}
{"molecule": "CCc1cc2c(nc1CC)CCN(CCC(C)=NOC[C@@H](C)[C@H](OCc1ccccc1)C(C)C)C2", "experimental readout": "composite z-score", "reading": -0.247}
{"molecule": "CCOC(=O)[C@H](CC(C)C)NC(=O)CCC1CC(OC(=O)NCCc2ccc(F)cc2)CC2(CCCC(COC(=O)NCc3cccc(C(F)(F)F)c3)O2)O1 (stereo partly specified)", "experimental readout": "composite z-score", "reading": -0.129}
{"molecule": "CCOC(=O)NN=C1C[C@@H](O)[C@@H](O)[C@@H]2[C@@H]3C(=O)N(CC)C(=O)[C@@H]3CC[C@H]12", "experimental readout": "composite z-score", "reading": -0.176}
{"molecule": "C=CC[C@@H]1C=C[C@H](ON=CC[C@@H]2C=C[C@H](OC(C)=O)[C@@H](COC(C)=O)O2)[C@@H](CO)O1", "experimental readout": "composite z-score", "reading": 0.423}

Given the molecule COC(=O)[C@H](Cc1ccccc1)NC(=O)[C@@H](C)CO , what is its reported composite z-score?
-0.034

Sample CCN1C(C)=C(C(=O)OC)[C@@H](c2ccccc2)N2C(=O)[C@](O)(C(=O)OC)CC(C(C)=O)=C12 — what was its composite z-score?
-0.0037

Quick one: composite z-score for O=C(NN=C1C[C@@H](O)[C@@H](O)[C@@H]2[C@@H]3C(=O)N(c4ccc(F)cc4F)C(=O)[C@@H]3CC[C@H]12)OCc1ccccc1 ?
-0.12

###

Items are presented alongside their recorded z-score.
test details: HepG2 cell viability effects, profiling panel, calcein-AM fluorescence, 48 h, basal (AID 1164)
test context: higher = more signal
Please respond with just the number, no unit label.

Worked examples, 3 compounds total:
{"compound": "COc1cccc([C@H](O)Cn2cc(-c3ccc(CON=C(C)C)cc3)nn2)c1", "reading": 0.206}
{"compound": "C#CCCCON=C1C[C@@H](O)[C@@H](O)[C@@H]2[C@@H]3C(=O)N([C@@H](C)c4ccccc4)C(=O)[C@@H]3CC[C@@H]12", "reading": -0.47}
{"compound": "COC(=O)[C@H](C)NC(=O)CCC1CC(OC(=O)NCc2ccc3c(c2)OCO3)CC2(CCCC(COC(=O)NCCC(C)C)O2)O1 (stereo not given in full)", "reading": -1.19}

What value of z-score has been recorded for this entry: C[C@@H]1CC[C@H]2C(=O)OC(Cc3ccccc3)CN2[C@H]1c1ccc(Br)cc1 (stereo not given in full)
0.556

Form field: reported z-score of CCOC(=O)CCN1C(=O)[C@H]2[C@H]3[C@H](O)[C@H](O)CC(=NNC(=O)OCc4ccc(OC)cc4)[C@H]3CC[C@H]2C1=O
-0.0426

###

Tested on: Human papillomavirus type 1a E7 protein (residues 1-88)
test details: HPV1a E7 small-molecule binders, primary screen, biochemical, small-molecule microarray, residues 1-88, 635 nm (AID 1129)
test context: small-molecule microarray binding, fluorescence 635 nm; higher = more signal
// values below are reported composite z-score
# output: bare number, no unit

// worked examples, composite z-score included
{"molecule": "O=C1CCCC=C1C(O)c1ccc([N+](=O)[O-])cc1 (centres undefined)", "experimental readout": "composite z-score", "reading": 0.154}
{"molecule": "CCc1cc2c(nc1CC)CCN(CCC(C)=NOCC[C@@H]1C=C[C@H](OC(C)=O)[C@@H](COC(C)=O)O1)C2", "experimental readout": "composite z-score", "reading": -0.19}
{"molecule": "C=CC[C@@H]1C=C[C@H](ON=C(C)CCN2CCCCc3nc(C)c(C)cc32)[C@@H](CO)O1", "experimental readout": "composite z-score", "reading": -0.0192}

Next item in the queue.
Human papillomavirus type 1a E7 protein (residues 1-88) / composite z-score / CCc1cc2c(nc1CC)CCN(CCC(C)=NOC(C)CN1CCCCc3nc(C)c(C)cc31)C2 (centres undefined) : value?
1.18

###

Test system: XIP peptide (Xip251-270) binding
test details: small-molecule binders of XIP peptide, primary screen, biochemical, small-molecule microarray, fluorescence 635/667 nm, 0.1 µg/mL protein (AID 1182)
test context: fluorescent protein binding, 635 nm, higher = more signal, called active from +8 up or from −8 down
Could you label it 1 if measured composite z-score is 0.08 or higher, and -1 otherwise?

Quick check: does CCOC(=O)[C@H](CC(C)C)NC(=O)CCC1CC(OC(=O)NCc2ccc3c(c2)OCO3)CC2(CCCC(COC(=O)NCCc3ccccc3OC)O2)O1 (some centres undefined) have composite z-score greater than or equal to 0.08?
1

Hi, just wondering whether O=C1CCCC=C1C(O)c1ccc([N+](=O)[O-])cc1 (centres undefined) shows composite z-score of 0.08 or higher.
-1

Quick check, composite z-score >= 0.08? CCOC(=O)[C@H](Cc1ccccc1)NC(=O)CCC1CC(OC(=O)NCCc2ccc(F)cc2)CC2(CCCC(COC(=O)NCc3cccc(C(F)(F)F)c3)O2)O1 (some centres undefined)
1

Record CC(=O)OC[C@H]1O[C@H](CC=NO[C@@H](C)c2cn([C@H](CO)Cc3ccccc3)nn2)C=C[C@@H]1OC(C)=O ; criterion: composite z-score no lower than 0.08. Met?
-1

Decide: composite z-score of CCN1C(=O)[C@H]2[C@@H]3C(=CC[C@H]2C1=O)C(=O)[C@H]1O[C@H]1[C@H]3O >= 0.08?
-1

Please indicate if the recorded composite z-score for Cc1ccc(C(C)C)n1C(=O)OC(C)(C)C meets or exceeds 0.08.
-1

Determine whether measured composite z-score meets or exceeds 0.08 for COc1cccc([C@H]2Oc3ccc(OC)cc3C(=NO[C@@H](C)c3cc(-c4c(C)cc(C)cc4C)no3)[C@@H]2O)c1
-1

Does the compound COc1ccc(COC(=O)NN=C2C[C@@H](O)[C@@H](O)[C@@H]3[C@@H]4C(=O)N(Cc5ccc6c(c5)OCO6)C(=O)[C@@H]4CC[C@H]23)cc1 have recorded composite z-score that is 0.08 or more?
1

Form field: composite z-score at least 0.08? Entry: COC(=O)CC=C[C@@H](C)[C@@H](C=NOC[C@@H](C)[C@H](OCc1ccccc1)C(C)C)OC
1

Entry COc1ccc(COC(=O)NN=C2C[C@@H](O)[C@@H](O)[C@@H]3[C@@H]4C(=O)N(C[C@@H]5CCCO5)C(=O)[C@@H]4CC[C@H]23)cc1 : is its composite z-score no less than 0.08?
-1

Given CC(CCN1CCCc2nc(C)c(C)cc21)=NO[C@H](C)c1cn([C@@H]2COC[C@H]2O)nn1 , state whether its composite z-score is at least 0.08.
-1

# bool: composite z-score of O=C1[C@H]2CCn3c(=O)n(-c4ccccc4)c(=O)n3[C@H]2[C@H](O)[C@@H]2O[C@H]12 >= 0.08
-1

Is it the case that CC(C)=NOC(C)CN1CCCc2nc(C)c(C)cc21 (centres undefined) has composite z-score reaching or exceeding 0.08?
1

Hello, I need to know if CC(=O)OC[C@H]1O[C@@H](ON=C(C)CCC(=O)OC[C@H]2O[C@H](C#Cc3ccccc3)C=C[C@@H]2Oc2ccc(C)cc2)[C@H](OC(C)=O)[C@@H](OC(C)=O)[C@@H]1OC(C)=O has measured composite z-score not below 0.08. Thanks!
-1
